System: IL-2 production
assay_method_text: Inhibition of IL-2 production in PHA-activated Jurkat cells (ELISA)
Type: cell-based
conditions: Homo sapiens, Jurkat, 20 h, PHA 2.5 μg/mL, IL-2 ELISA
pIC50: −log10 of the molar value.
observed_property: pIC50

Field: example entries. Status: answers known.
Fc1cccc(F)c1CNc1ccc(-c2cc(-c3ncco3)ccc2Cl)cn1 [Compound 5] : 7.77
Cc1cc[nH]c1C(=O)Nc1ccc(-c2cc(-c3nccs3)ccc2Cl)cn1 [Compound 15] : 6.46
Cc1ccc(-c2ccno2)cc1-c1ccc(NCc2c(F)cccc2F)cn1 [Compound 3] : 7.32
O=C(Nc1ccc(-c2cc(-c3nccs3)ccc2Cl)cn1)c1ccncc1F [Compound 8] : 7.96
Cn1cncc1C(=O)Nc1ccc(-c2cc(-c3nccs3)ccc2Cl)cn1 [Compound 16] : 7.04

[a] Cc1ccc(-c2ncccn2)cc1-c1ccc(NC(=O)c2c(F)cccc2F)nc1 [Compound 7]
[b] Fc1cccc(F)c1CNc1ccc(-c2cc(-c3nccs3)ccc2Cl)nc1 [Compound 4]
# input // select label with min value of measured pIC50 from [ a , b ] Refer to your chosen entry by its label in the reply.
# output b
(b: 7.72, a: 7.92)

Origin of the recorded values: patent US20120064121A1
